Measured values drawn from patent US9409876B2 for this set.

assay: Pharmacokinetics after oral gavage; assay type: in vivo, rat; details: Sprague-Dawley, rat, plasma, oral, 10 mg/kg, 10 mg/kg oral gavage, Rat 1; read-out: Clast
observationType: concentration at 240 min (ng/mL)
// units = ng/mL; emit number, no label

Challenge: Request the reported concentration at 240 min associated with COc1ccccc1CN(C(=O)CC(C)C)[C@@H](C(=O)NC[C@H]1CCCO1)c1ccc(C)cc1 [Compound 8 (R,R)]
Response given: 1.1

----------
Target: BKB1 receptors (Homo sapiens, UniProt P46663)
Construct: Human (IMR-90) lung fibroblast cells expressing native BKB1 receptors; endogenous in cells; host or cells: IMR-90 human lung fibroblasts, treated with human IL-1 to up-regulate BKB1
Sequence (P46663 1-353): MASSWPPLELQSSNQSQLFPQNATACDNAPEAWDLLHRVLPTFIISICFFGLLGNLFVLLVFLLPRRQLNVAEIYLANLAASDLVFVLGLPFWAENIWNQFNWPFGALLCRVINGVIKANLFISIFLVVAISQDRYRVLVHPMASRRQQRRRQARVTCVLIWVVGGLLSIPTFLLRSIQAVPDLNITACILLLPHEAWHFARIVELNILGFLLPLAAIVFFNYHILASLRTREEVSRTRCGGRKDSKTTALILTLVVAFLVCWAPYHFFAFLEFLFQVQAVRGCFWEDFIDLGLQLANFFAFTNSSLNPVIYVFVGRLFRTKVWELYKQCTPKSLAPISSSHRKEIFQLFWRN
Experiment: Calcium Mobilization Assay (FLIPR), IMR-90 cells, BKB1
Type: cell-based
Details: IL-1 induced IMR-90 cells, agonist desArg10-kallidin (DAKD)
observationType: pIC50
Units for pIC50: none; it is -log10 of a concentration expressed in mol/L.

Challenge: Request the reported pIC50 associated with COc1ccccc1CN(C(=O)Cc1ccc(C)cc1)C(C(=O)NCC1CCCO1)c1ccc(C)cc1 (stereo not drawn)
Response given: 5.85

Challenge: Next record, please: COc1ccccc1CN(C(=O)Cc1ccccc1)[C@@H](C(=O)NC[C@H]1CCCO1)c1ccc(C)cc1 [Compound 7 (R,R)]
Response given: 6.70

Challenge: Next record, please: COc1ccccc1CN(C(=O)Cc1c[nH]cn1)C(C(=O)NCC1CCCO1)c1ccc(C)cc1 (stereo not drawn)
Response given: 7.01

----------
test: Pharmacokinetics after oral gavage; format: in vivo, rat; details: Sprague-Dawley, rat, plasma, po, 10 mg/kg, 10 mg/kg oral gavage, Average; read-out: AUCINF_obs (converted)
observationType: AUC(0-inf) (ng·h/mL)
// units = ng·h/mL; emit number, no label

Challenge: Request the reported AUC(0-inf) associated with COc1ccccc1CN(C(=O)CC(C)C)[C@@H](C(=O)NC[C@H]1CCCO1)c1ccc(C)cc1 [Compound 8 (R,R)]
Response given: 10.8

----------
assay: Pharmacokinetics after IV administration, brain penetration assessment; assay type: in vivo, rat; conditions: Sprague-Dawley, rat; IV 7.5 mg/kg, Brain
observationType: Cmax

Challenge: Request the reported Cmax associated with COc1ccccc1CN(C(=O)CC(C)C)[C@@H](C(=O)NC[C@H]1CCCO1)c1ccc(C)cc1 [Compound 8 (R,R)]
Response given: 635 ng/g

----------
assay: Pharmacokinetics after oral gavage; type: in vivo, rat; conditions: Sprague-Dawley, rat, plasma, po, 10 mg/kg, oral administration, 5 min, Average; read-out: plasma level
observationType: concentration at 5 min (ng/mL)
// units = ng/mL; emit number, no label

Challenge: Request the reported concentration at 5 min associated with COc1ccccc1CN(C(=O)CC(C)C)[C@@H](C(=O)NC[C@H]1CCCO1)c1ccc(C)cc1 [Compound 8 (R,R)]
Response given: 3.1

----------
test: Pharmacokinetics after oral gavage; assay type: in vivo, rat; conditions: Sprague-Dawley, rat, plasma, po, 10 mg/kg, oral administration, 240 min, Average; read-out: plasma level
observationType: concentration at 240 min (ng/mL)
// units = ng/mL; emit number, no label

Challenge: Request the reported concentration at 240 min associated with COc1ccccc1CN(C(=O)CC(C)C)[C@@H](C(=O)NC[C@H]1CCCO1)c1ccc(C)cc1 [Compound 8 (R,R)]
Response given: 1.1

----------
Experiment: Pharmacokinetics after oral gavage
Type: in vivo, rat
Conditions: Sprague-Dawley, rat, plasma, po, 10 mg/kg, 10 mg/kg oral gavage, Rat 1
Experimental: In three of the rats tested in Example 56, indicated as R1, […], also the pharmacokinetic profile of compound 8 (R,R) was evaluated. The results are summarised in Tables III to IV and in FIGS. 1-4. FIGS. 1 and 2 show the plasma concentrations, expressed in ng/ml, of compound 8 (R,R) over time after oral administration for each of the three subjects tested (FIG. 1) and as an average (FIG. 2). […] In tables IV and VI, LLOQ means lower limit of quantification.
observationType: Cmax (ng/mL)
// units = ng/mL; emit number, no label

Challenge: Request the reported Cmax associated with COc1ccccc1CN(C(=O)CC(C)C)[C@@H](C(=O)NC[C@H]1CCCO1)c1ccc(C)cc1 [Compound 8 (R,R)]
Response given: 4

----------
experiment: Pharmacokinetics after oral gavage; type: in vivo, rat; conditions: Sprague-Dawley, rat, plasma, po, 10 mg/kg, 10 mg/kg oral gavage, Average; read-out: T½
observationType: half-life (h)
// units = h; emit number, no label

Challenge: Request the reported half-life associated with COc1ccccc1CN(C(=O)CC(C)C)[C@@H](C(=O)NC[C@H]1CCCO1)c1ccc(C)cc1 [Compound 8 (R,R)]
Response given: 3.37

----------
assay: Pharmacokinetics after oral gavage; format: in vivo, rat; conditions: Sprague-Dawley, rat, plasma, po, 10 mg/kg, oral administration, 5 min, Rat1; read-out: plasma level
observationType: concentration at 5 min (ng/mL)
// units = ng/mL; emit number, no label

Challenge: Request the reported concentration at 5 min associated with COc1ccccc1CN(C(=O)CC(C)C)[C@@H](C(=O)NC[C@H]1CCCO1)c1ccc(C)cc1 [Compound 8 (R,R)]
Response given: 4

----------
assay: Pharmacokinetics after oral gavage; type: in vivo, rat; conditions: Sprague-Dawley, rat, plasma, po, 10 mg/kg, 10 mg/kg oral gavage, Rat 3
observationType: AUC(0-t) (ng·h/mL)
// units = ng·h/mL; emit number, no label

Challenge: Request the reported AUC(0-t) associated with COc1ccccc1CN(C(=O)CC(C)C)[C@@H](C(=O)NC[C@H]1CCCO1)c1ccc(C)cc1 [Compound 8 (R,R)]
Response given: 2.59

----------
test: Pharmacokinetics after oral gavage; format: in vivo, rat; conditions: Sprague-Dawley, rat, plasma, po, 10 mg/kg, 10 mg/kg oral gavage, Rat 2
observationType: Cmax (ng/mL)
// units = ng/mL; emit number, no label

Challenge: Request the reported Cmax associated with COc1ccccc1CN(C(=O)CC(C)C)[C@@H](C(=O)NC[C@H]1CCCO1)c1ccc(C)cc1 [Compound 8 (R,R)]
Response given: 3

----------
assay: Pharmacokinetics after oral gavage; assay type: in vivo, rat; conditions: Sprague-Dawley, rat, plasma, po, 10 mg/kg, 10 mg/kg oral gavage, Average
observationType: Tmax (min)
// units = min; emit number, no label

Challenge: Request the reported Tmax associated with COc1ccccc1CN(C(=O)CC(C)C)[C@@H](C(=O)NC[C@H]1CCCO1)c1ccc(C)cc1 [Compound 8 (R,R)]
Response given: 8.3

----------
Experiment: Pharmacokinetics after IV administration, brain penetration assessment
Assay type: in vivo, rat
Conditions: Sprague-Dawley (SD), rat; IV 7.5 mg/kg, Plasma
Description: In three of the rats tested in Example 56, indicated as R1, […], also the pharmacokinetic profile of compound 8 (R,R) was evaluated. The results are summarised in Tables III to IV and in FIGS. 1-4. […] In tables IV and VI, LLOQ means lower limit of quantification. […]
observationType: AUC(0-t) (ng·h/mL)
// units = ng·h/mL; emit number, no label

Challenge: Request the reported AUC(0-t) associated with COc1ccccc1CN(C(=O)CC(C)C)[C@@H](C(=O)NC[C@H]1CCCO1)c1ccc(C)cc1 [Compound 8 (R,R)]
Response given: 1200

----------
assay: Pharmacokinetics after oral gavage; assay type: in vivo, rat; conditions: Sprague-Dawley, rat, plasma, po, 10 mg/kg, 10 mg/kg oral gavage, Rat 1
observationType: Tmax

Challenge: Request the reported Tmax associated with COc1ccccc1CN(C(=O)CC(C)C)[C@@H](C(=O)NC[C@H]1CCCO1)c1ccc(C)cc1 [Compound 8 (R,R)]
Response given: 5 min

----------
assay: Pharmacokinetics after oral gavage; type: in vivo, rat; details: Sprague-Dawley (SD), rat, plasma, po, 10 mg/kg, oral administration, 15 min, Average; read-out: plasma level
observationType: concentration at 15 min (ng/mL)
// units = ng/mL; emit number, no label

Challenge: Request the reported concentration at 15 min associated with COc1ccccc1CN(C(=O)CC(C)C)[C@@H](C(=O)NC[C@H]1CCCO1)c1ccc(C)cc1 [Compound 8 (R,R)]
Response given: 2.6
